Would you kindly list kon for each of these binders?
measurement.target: T1, human MSLN-FL-his protein (human, UniProt Q13421 296-580)
T1 construct: made in HEK293E cells, purified on nickel column; also called hMSLN-FL-his; human MSLN full-length protein; not shown: His tag
T1 sequence (Q13421 other isoform, or with tags, fused parts or gaps): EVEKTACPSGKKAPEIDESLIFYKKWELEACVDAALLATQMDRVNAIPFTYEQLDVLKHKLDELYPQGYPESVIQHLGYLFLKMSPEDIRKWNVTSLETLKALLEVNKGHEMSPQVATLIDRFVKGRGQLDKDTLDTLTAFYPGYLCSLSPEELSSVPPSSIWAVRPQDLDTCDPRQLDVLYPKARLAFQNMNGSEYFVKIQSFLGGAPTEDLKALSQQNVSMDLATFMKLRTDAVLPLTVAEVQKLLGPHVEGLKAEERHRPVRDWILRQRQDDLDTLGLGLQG
protocol.notes: SPR (Biacore), antibody captured on Protein A chip;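 further: measured at 25 °C, analyte injected 240 s in five twofold dilutions from 200 nM, dissociation up to 600 s, double-referenced, fitted with Langmuir 1:1 model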
Answer in M⁻¹ s⁻¹, number only, no unit symbol.

Q) Name the recorded kon of the item S009-F4-94.15 (antibody, human IgG1, kappa, V domains shown, human-murine chimeric antibody, human IgG1/kappa constant regions) VH: QVQLHQPGAELVRPGSSVKLSCKASGYTFTSYWVHWVQQRPRQGLEWIGNIDPSDSEIHYNQKFKDKATLTVDKSSSTAYIHLSRLTSEDSAIYYCVRGGVPWFAYWGQGTLVTVSA VL: QIVLTQSPAIMSASPGEKVTLTCSASSSVSSTYLYWFQQKPGSSPKVWIYSTSNLASGVPARFSGSGSGTSYSLTISSMEAEDAASYFCHQWISYPYTFGGGTKLEIKR in your answer.
A) 154000

Q) Answer with reported kon of S009-F2.38.12 (antibody, human IgG1, kappa, V domains shown, human-murine chimeric antibody, human IgG1/kappa constant regions) VH: QVQLQQPGTELVKPGASVKLSCKASGYTFTSYWMHWVKQRPGQGLEWIGNINPSNGGTNYNEKIKNKATLTVDKSSSTAYMQLSSLTSEDSAVYYCARWNYYGNYPFDYWGQGTTLTVSS VL: DIVMTQSQKFMSTTVGDRVSITCKASQNVGTAVAWYQQKPGQSPKLLIYSASNRYTGVPDRFTGSGSGTDFTLTISNMQSEDLADYFCQQYSSYPLTFGAGTKLELKR
A) 354000
